tested.system: EGFR WT (Ba/F3 cells) (Homo sapiens)
Sequence (P00533 25-1210): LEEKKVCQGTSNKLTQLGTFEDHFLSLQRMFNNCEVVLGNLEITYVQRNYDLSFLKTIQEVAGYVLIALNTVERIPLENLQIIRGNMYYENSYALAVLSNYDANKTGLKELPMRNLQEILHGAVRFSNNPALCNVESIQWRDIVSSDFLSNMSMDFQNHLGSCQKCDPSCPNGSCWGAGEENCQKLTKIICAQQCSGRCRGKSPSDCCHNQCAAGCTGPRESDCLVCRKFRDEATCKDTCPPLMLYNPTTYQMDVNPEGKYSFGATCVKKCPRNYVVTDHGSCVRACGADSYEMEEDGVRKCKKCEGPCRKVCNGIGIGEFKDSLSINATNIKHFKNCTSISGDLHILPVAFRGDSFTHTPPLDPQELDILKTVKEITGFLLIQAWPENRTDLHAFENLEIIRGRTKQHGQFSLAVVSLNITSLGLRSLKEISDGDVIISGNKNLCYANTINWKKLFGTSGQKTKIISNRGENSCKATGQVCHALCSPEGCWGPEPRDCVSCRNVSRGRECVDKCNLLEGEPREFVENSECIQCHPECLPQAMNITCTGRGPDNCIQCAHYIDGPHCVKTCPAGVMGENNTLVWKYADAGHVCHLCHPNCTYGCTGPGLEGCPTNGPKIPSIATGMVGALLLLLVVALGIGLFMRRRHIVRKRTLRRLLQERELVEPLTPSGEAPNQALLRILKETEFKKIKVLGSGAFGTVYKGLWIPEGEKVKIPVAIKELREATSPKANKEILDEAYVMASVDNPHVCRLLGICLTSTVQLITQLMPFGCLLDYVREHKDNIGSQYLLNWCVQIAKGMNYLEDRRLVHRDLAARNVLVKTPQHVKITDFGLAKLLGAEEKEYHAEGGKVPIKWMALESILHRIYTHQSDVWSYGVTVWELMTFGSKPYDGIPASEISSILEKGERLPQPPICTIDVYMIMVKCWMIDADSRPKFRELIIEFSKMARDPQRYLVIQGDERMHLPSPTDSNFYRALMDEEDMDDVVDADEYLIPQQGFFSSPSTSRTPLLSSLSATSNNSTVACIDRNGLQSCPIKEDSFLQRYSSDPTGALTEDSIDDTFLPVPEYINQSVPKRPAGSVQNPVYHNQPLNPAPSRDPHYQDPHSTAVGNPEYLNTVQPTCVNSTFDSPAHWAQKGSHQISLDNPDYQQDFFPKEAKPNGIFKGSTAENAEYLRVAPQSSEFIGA
procedure.summary: Inhibitor activity on EGFR-dependent cell growth (CellTiter-Glo, 72 h), Ba/F3 EGFR WT
applied.conditions: read-out: BaF3 WT IC50
pIC50: −log10 of the molar value.
measured.attribute: pIC50

> print(dat)
                                   compound  measured.attribute   test.result
1  COc1c(Cl)cccc1Nc1c(-c2nc(N)ncc2F)[nH]c2c1C(=O)NCC2               pIC50        < 6.00
2  COc1c(F)cccc1Nc1c(-c2ccnc3cnc(N4CCN(C(=O)/C=C/CN(C)C)CC4)nc23)[nH]c2c1C(=O)NCC2               pIC50  6.00 to 7.00
3  COc1c(F)cccc1Nc1c(-c2ccnc(-c3ccccc3)c2)[nH]c2c1C(=O)NCC2               pIC50  6.00 to 7.00
4  COc1c(Cl)cccc1Nc1c(-c2ccnc(-c3cnn(C)c3)n2)[nH]c2c1C(=O)NCC2               pIC50  6.00 to 7.00
5  COc1c(F)cccc1Nc1c(-c2ccnc(C)n2)[nH]c2c1C(=O)NCC2C[C@@H]1COCCO1 (single isomer, unassigned) [Compound 604]               pIC50  6.00 to 7.00
